Molecular target: Peroxisome proliferator-activated receptor gamma (Homo sapiens, UniProt P37231)
Sequence (P37231 whole entry): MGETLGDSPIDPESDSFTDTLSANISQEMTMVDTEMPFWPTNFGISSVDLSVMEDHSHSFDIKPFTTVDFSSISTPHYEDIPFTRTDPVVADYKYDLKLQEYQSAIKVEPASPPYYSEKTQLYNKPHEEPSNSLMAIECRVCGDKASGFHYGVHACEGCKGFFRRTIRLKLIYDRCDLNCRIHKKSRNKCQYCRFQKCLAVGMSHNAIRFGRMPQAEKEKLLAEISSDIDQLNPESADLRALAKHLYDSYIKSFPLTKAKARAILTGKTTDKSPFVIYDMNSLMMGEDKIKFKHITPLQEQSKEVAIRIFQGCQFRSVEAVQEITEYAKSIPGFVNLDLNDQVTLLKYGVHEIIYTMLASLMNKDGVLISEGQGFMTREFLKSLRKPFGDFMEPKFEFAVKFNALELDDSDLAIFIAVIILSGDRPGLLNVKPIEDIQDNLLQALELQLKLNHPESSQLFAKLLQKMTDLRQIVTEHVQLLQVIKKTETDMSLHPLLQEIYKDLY
pEC50: −log10 of the molar value.
MEASUREMENT_KIND: pEC50

Per the record, "CSc1nc(NCc2ccncc2)c(C(=O)O)c(SCc2ccccc2)n1" has pEC50 of 5.57

[A] CSc1nc(Cl)c(C(=O)NCc2ccccc2)c(NCc2ccccc2)n1
[B] CCCCN(C)c1nc(NCc2ccccc2)c(C(=O)O)c(SCc2ccccc2)n1
INPUT: Which shows the larger pEC50 value: A or B ? Could you answer with the label of the item you picked?
OUTPUT: B

[1] CSc1nc(Nc2ccccc2)c(C(=O)O)c(SCc2ccccc2)n1
[2] CCCCCCCNc1nc(NCc2ccccc2)c(C(=O)O)c(SCc2ccccc2)n1
[3] CCCCCCCCSc1nc(NCc2ccccc2)c(C(=O)O)c(SCc2ccccc2)n1
[4] CCCCSc1nc(NCc2ccccc2)c(C(=O)O)c(SCc2ccccc2)n1
INPUT: Hey, quick one: sort these by pEC50, largest value first please. Please express your ranking as an ordered list of the labels.
OUTPUT: 2, 4, 3, 1
(2: 6.60, 4: 6.26, 3: 6.02, 1: 5.80)

###

A short record of pEC50 observed with Peroxisome proliferator-activated receptor gamma (Homo sapiens, UniProt P37231) follows.
// pEC50: -log10(molar conc.)

Worked examples, 3 molecules total:
Notebook: "CSc1nc(NCc2ccccc2)c(C(=O)O)c(OCc2ccccc2)n1" , pEC50 read as 5.64

Per the records, this molecule ( "CSc1nc(NCC2CCCCC2)c(C(=O)O)c(SCc2ccccc2)n1" ) has pEC50 equal to 6.52

Just so you know, measured pEC50 for "CSc1nc(SCc2ccccc2)c(C(=O)O)c(SCc2ccccc2)n1" came out at 6.85

// switching to the query molecule
The recorded pEC50 for "CSc1nc(NCc2ccccn2)c(C(=O)O)c(SCc2ccccc2)n1" is 6.60
